These data points were gathered from PubChem BioAssay AID624167.

tested on: Rat fibroblasts (CREF); assay: Peg3 promoter luciferase inhibitors, potency, dose response, cell-based, HeLa, CREF/GAPDH counter-screen panel (AID 624167); conditions: CREF/GAPDH counter-screens, run 2, dose range 1, individual replicate IC50 per panel
# strict inequality: IC50 < 4 µM yields yes (1), everything else yields no (0)

// known answers, use as guide
[[record]]
molecule = "O=[N+]([O-])c1ccc(S(=O)(=O)c2ccccc2)nc1"
target_of_assay = "Rat fibroblasts (CREF)"
assigned_label = "no (0)"

[[record]]
molecule = "O=c1c2ccccc2cnn1-c1nc2ccccc2[nH]1"
target_of_assay = "Rat fibroblasts (CREF)"
assigned_label = "yes (1)"

[[record]]
molecule = "C/C(=N\\NC(=O)c1n[nH]c2c1CCC2)c1cccs1"
target_of_assay = "Rat fibroblasts (CREF)"
assigned_label = "yes (1)"

[[record]]
molecule = "CN(C)S(=O)(=O)c1ccc(-c2csc(N/N=C/c3ccc(O)cc3)n2)cc1"
target_of_assay = "Rat fibroblasts (CREF)"
assigned_label = "no (0)"

[[record]]
molecule = "Cc1cc(C(=O)COC(=O)c2ccccc2O)c(C)n1Cc1cccs1"
target_of_assay = "Rat fibroblasts (CREF)"
assigned_label = "yes (1)"

[[record]]
molecule = "C=CCn1c(C)cc(C(=O)CN2C(=O)c3ccccc3S2(=O)=O)c1C"
target_of_assay = "Rat fibroblasts (CREF)"
assigned_label = "yes (1)"

[[record]]
molecule = "CCOC(=O)Cc1csc(NC(=S)NC(=O)c2ccc(Cl)cc2)n1"
target_of_assay = "Rat fibroblasts (CREF)"
assigned_label = "no (0)"

[[record]]
molecule = "O=[N+]([O-])c1nn(-c2ccc3c(c2)OCCO3)n(O)c1=Nc1ccc(Cl)cc1"
target_of_assay = "Rat fibroblasts (CREF)"
assigned_label = "no (0)"


Request: Please let me know if `N=c1n(CC(=O)c2ccc([N+](=O)[O-])cc2)c2ccccc2n1Cc1ccc(Cl)cc1` shows IC50 below 4 µM.
Result: no (0)

Request: Please let me know if C=C1CC(COc2ccc3c(C)c(Cl)c(=O)oc3c2)(c2ccccc2)OC1=O (stereo unspecified) shows IC50 below 4 µM.
Result: no (0)

Request: Please let me know if `O=C(COc1ccc2c(c1)CCC2)Nc1ccccn1` shows IC50 below 4 µM.
Result: no (0)

* * *

Field: pIC50. Provide a value for each of the compounds that follow.
system: PEG-3; assay: Peg3 promoter luciferase inhibitors, potency, dose response, cell-based, HeLa, CREF/GAPDH counter-screen panel (AID 624167); details: HeLa PEG-Prom luciferase reporter, overnight, CREF/GAPDH counter-screens, run 1, dose range 1, individual replicate IC50 per panel
Answers are plain numbers, as −log10 of the molar value.

Sample records with pIC50:
[[record]]
compound = "Cc1cc(S(=O)(=O)c2ccc(Cl)cc2)nc(S(=O)(=O)c2ccc(Cl)cc2)c1C#N"
assay_endpoint = "pIC50"
numeric_value = 5.21

[[record]]
compound = "COc1cc(C(=O)/C=C/c2cccnc2)c([N+](=O)[O-])cc1OC"
assay_endpoint = "pIC50"
numeric_value = 4.71

[[record]]
compound = "Cc1ccc(-c2nc(-c3ccccn3)no2)cc1Cl"
assay_endpoint = "pIC50"
numeric_value = 5.92

[[record]]
compound = "CCn1c2ccccc2c2cc(NC(=O)C(C)OC(=O)c3ccc(NC(=O)CC#N)cc3)ccc21 (stereo not drawn)"
assay_endpoint = "pIC50"
numeric_value = 4.38

[[record]]
compound = "COc1cccc(OC)c1C(=O)Nc1cc(C)nn1-c1nc2ccccc2[nH]1"
assay_endpoint = "pIC50"
numeric_value = 5.68


Could you tell me pIC50 for each of these compounds? They are listed below.
1. COc1ccc2sc(N(CCCN(C)C)C(=O)c3ccc(S(=O)(=O)N4CCCc5ccccc54)cc3)nc2c1
2. O=C(NC1=NCCS1)C1COc2ccccc2O1 (stereo not drawn)

Result:
1: 4.68; 2: 5.87

Could you tell me pIC50 for each of these compounds? They are listed below.
1. CN(C)CCNc1ccc2nnn3c4ccc(O)cc4c(=O)c1c23
2. Oc1c(I)cc(Cl)c2cccnc12
3. COc1ccc2c(c1)sc1nc(-c3ccccc3)cn12
4. O=c1c2ccccc2sc2nc(CCl)nn12
5. Cc1nn(C(C)(C)C)c(C)c1/C=N/OC(=O)Nc1ccc(Cl)cc1
6. C/C(=N\N=C(N)N)c1ccc(Cl)cc1Cl
7. Cc1csc(NC(=O)c2cn3ccccc3n2)n1
8. CN[C@H]1C[C@H]2c3[nH]c4ccc(-c5cccc(C)c5)cc4c3CCN2C[C@H]1[C@H](C)O

Result:
1. 4.34
2. 5.10
3. 5.61
4. 5.03
5. 5.21
6. 4.73
7. 5.57
8. 4.73
